So I've got a bunch of compounds here, and I need their k3/ki values.
target: UniProtKB P55212; assay: Binding affinity against Caspase-6
Sequence (P55212 24-179 limits assumed): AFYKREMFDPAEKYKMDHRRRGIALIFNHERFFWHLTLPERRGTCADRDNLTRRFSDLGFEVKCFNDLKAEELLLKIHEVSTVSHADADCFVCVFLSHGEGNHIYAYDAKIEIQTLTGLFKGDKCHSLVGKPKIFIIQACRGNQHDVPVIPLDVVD
Sequence (P55212 194-293 limits assumed): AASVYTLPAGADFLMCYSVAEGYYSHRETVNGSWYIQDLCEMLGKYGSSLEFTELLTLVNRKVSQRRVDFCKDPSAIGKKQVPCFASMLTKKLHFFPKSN

What does the data say about its k3/ki? Entry: "CC(C)[C@H](NC(=O)COc1cccc2ccccc12)C(=O)N[C@@H](CC(=O)O)C(=O)COc1cc(C(F)(F)F)n(C)n1"
509 1/m/s

What does the data say about its k3/ki? Entry: "CC(C)[C@H](NC(=O)COc1cccc2ccccc12)C(=O)N[C@@H](CC(=O)O)C(=O)CSc1nc(-c2ccccc2)c(-c2ccccc2)o1"
0 1/m/s

What does the data say about its k3/ki? Entry: "CC(C)[C@H](NC(=O)COc1cccc2ccccc12)C(=O)N[C@@H](CC(=O)O)C(=O)CSc1nc(-c2ccccc2)cs1"
0 1/m/s

What does the data say about its k3/ki? Entry: "CC(C)[C@H](NC(=O)COc1cccc2ccccc12)C(=O)N[C@@H](CC(=O)O)C(=O)CSc1nnnn1-c1ccccc1"
224 1/m/s
